Origin of measurements: patent US20240116985A1

Recorded CHI Log D, one value per entry.
# procedure.details: CHI Log D procedure
# Type: physicochemical
# measurement.parameters: pH 7.4
Could you respond with only the numeric value?

CC[C@H](C)[C@@H]1NC(=O)[C@H](CC(=O)O)NC(=O)[C@]2(CC=CCCCC3(CCCC=CCCCCCC[C@@](C)(C(=O)N[C@@H](Cc4ccccc4)C(=O)N[C@@H](Cc4csc5ccccc45)C(=O)N[C@@H](CO)C(N)=O)NC(=O)[C@H](CCC(N)=O)NC(=O)[C@H](Cc4ccccc4)NC(=O)[C@H](C)NC(=O)[C@H](C)NC(=O)[C@H](CCC(=O)O)NC(=O)[C@H](CC(=O)O)NC3=O)NC1=O)CCCN2C(C)=O (some centres unmarked) [I-639]; 2.49
CCCC[C@@H]1NC(=O)[C@H](C)NC(=O)[C@H](CCC(=O)O)NC(=O)[C@H](CC(=O)O)NC(=O)C2(CCCC=CCCCCCC[C@@](C)(C(=O)N[C@@H](Cc3ccccc3)C(=O)N[C@@H](Cc3csc4ccccc34)C(=O)N[C@@H](CCC(N)=O)C(N)=O)NC(=O)[C@H](CCC(N)=O)NC(=O)[C@H](Cc3ccccc3)NC1=O)CCCC=CC[C@]1(CCCN1C(C)=O)C(=O)N[C@@H](CC(=O)O)C(=O)N[C@@H]([C@@H](C)CC)C(=O)N2 (some centres unmarked) [I-666]; 2.862
CC(=O)N1CCC[C@]12CC=CCCCC1(CCCC=CCCCCCC[C@@](C)(C(=O)N[C@@H](Cc3ccccc3)C(=O)N[C@@H](Cc3csc4ccccc34)C(=O)N[C@@H](CCC(N)=O)C(N)=O)NC(=O)[C@H](CCC(N)=O)NC(=O)[C@H](Cc3cccc(C(F)(F)F)c3)NC(=O)[C@H](C)NC(=O)[C@H](C)NC(=O)[C@H](CC(=O)O)NC(=O)[C@H](CC(=O)O)NC1=O)NC(=O)[C@H](C)NC(=O)[C@H](CC(=O)O)NC2=O (some centres unmarked) [I-380]; 2.19
CC(=O)N[C@@H](Cc1ccccc1)C(=O)N[C@@H](CC(=O)O)C(=O)N[C@@H](C)C(=O)N[C@]1(C)CCCN(C)C(=O)OCC=CCCCC[C@@](C)(C(=O)N[C@@H](Cc2ccccc2)C(=O)N[C@@H](Cc2c[nH]c3ccccc23)C(=O)N[C@@H](CCC(N)=O)C(N)=O)NC(=O)[C@H](C(C)C)NC(=O)[C@H](Cc2ccccc2)NC(=O)[C@H](C)NC(=O)[C@H](C)NC(=O)[C@H](CC(=O)O)NC(=O)[C@H](CC(=O)O)NC1=O; 1.219

Continue with the next compound.
Task: # get_value(readout='CHI Log D', item= CC(=O)N1CCC[C@]12CC=CCCCC1(CCCC=CCCCCCC[C@@](C)(C(=O)N[C@@H](Cc3ccsc3)C(=O)N[C@@H](Cc3csc4ccccc34)C(=O)N[C@@H](CCC(N)=O)C(N)=O)NC(=O)[C@H](CC(N)=O)NC(=O)[C@H](Cc3ccccc3)NC(=O)[C@H](C)NC(=O)[C@H](C)NC(=O)[C@H](CC(=O)O)NC(=O)[C@H](CC(=O)O)NC1=O)NC(=O)[C@H](CC(C)(C)C)NC(=O)[C@H](CC(=O)O)NC2=O (some centres unmarked) [I-679] )
Result: 2.382

----------
Examples of compounds with documented pIC50 follow.
# system: beta-catenin/TCF4 engagement (Homo sapiens)
# Construct: expressed in transfected cells; host or cells: HEK293
# Sequence (P35222 whole entry): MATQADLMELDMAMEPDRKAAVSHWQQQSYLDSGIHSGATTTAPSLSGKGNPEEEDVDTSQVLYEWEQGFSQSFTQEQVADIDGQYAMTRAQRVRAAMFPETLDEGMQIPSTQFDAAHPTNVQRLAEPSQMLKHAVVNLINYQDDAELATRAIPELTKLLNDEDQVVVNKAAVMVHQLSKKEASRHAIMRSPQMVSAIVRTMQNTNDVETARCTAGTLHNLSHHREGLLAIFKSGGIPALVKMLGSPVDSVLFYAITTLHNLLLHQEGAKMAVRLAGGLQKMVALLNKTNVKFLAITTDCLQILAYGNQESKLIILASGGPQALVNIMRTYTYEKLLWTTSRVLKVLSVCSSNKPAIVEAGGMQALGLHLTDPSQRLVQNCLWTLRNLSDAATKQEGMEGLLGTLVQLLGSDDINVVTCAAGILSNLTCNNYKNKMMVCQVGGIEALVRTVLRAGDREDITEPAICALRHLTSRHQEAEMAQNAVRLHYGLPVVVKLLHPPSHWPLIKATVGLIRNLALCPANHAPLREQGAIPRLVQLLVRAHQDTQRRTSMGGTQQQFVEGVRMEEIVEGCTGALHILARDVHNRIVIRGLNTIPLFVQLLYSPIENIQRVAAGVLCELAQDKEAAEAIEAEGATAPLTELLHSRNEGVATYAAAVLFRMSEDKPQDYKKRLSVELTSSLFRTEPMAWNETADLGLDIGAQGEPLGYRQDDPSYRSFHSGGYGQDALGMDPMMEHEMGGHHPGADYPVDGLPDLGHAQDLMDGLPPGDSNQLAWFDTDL
# procedure.details: Nano-BRET target engagement assay (B-cat-Halo & TCF4-Luc in HEK293 cells)
# Assay type: cell-based
# measurement.parameters: absolute IC50; read-out: NanoBRET Abs IC50
Please note pIC50 is a logarithmic value: minus log10 of concentration in mol/L. Answer with that number alone.

CC(=O)N1CCC[C@]12CC=CCCCC1(CCCC=CCCCCCC[C@@](C)(C(=O)N[C@@H](Cc3ccccc3)C(=O)N[C@@H](Cc3csc4ccccc34)C(=O)N[C@@H](CCC(N)=O)C(N)=O)NC(=O)[C@H](CCC(N)=O)NC(=O)[C@H](Cc3ccccc3)NC(=O)[C@H](C)NC(=O)[C@H](C)NC(=O)[C@H](CCC(=O)O)NC(=O)[C@H](CC(=O)O)NC1=O)NC(=O)[C@H](CCC(C)C)NC(=O)[C@H](CC(=O)O)NC2=O (some centres unmarked); 5.46
CC[C@H](C)[C@@H]1NC(=O)[C@H](CC(=O)O)NC(=O)[C@]2(CC=CCCCC3(CCCC=CCCCCCC[C@@](C)(C(=O)N[C@@H](Cc4ccccc4)C(=O)N[C@@H](Cc4csc5ccccc45)C(=O)N[C@@H](CCC(N)=O)C(N)=O)NC(=O)[C@H](CCC(N)=O)NC(=O)[C@H](Cc4ccccc4)NC(=O)[C@H](CO)NC(=O)[C@H](C)NC(=O)[C@H](CCC(=O)O)NC(=O)[C@H](CC(=O)O)NC3=O)NC1=O)CCCN2C(C)=O (some centres unmarked); 4.79
CC(=O)N1CCC[C@]12CC=CCCCC1(CCCC=CCCCCCC[C@@](C)(C(=O)N[C@@H](Cc3ccccc3)C(=O)N[C@@H](Cc3csc4ccccc34)C(=O)N[C@@H](CCC(N)=O)C(N)=O)NC(=O)[C@H](CC(N)=O)NC(=O)[C@H](Cc3ccccc3)NC(=O)[C@H](C)NC(=O)[C@H](C)NC(=O)[C@H](CCC(=O)O)NC(=O)[C@H](CC(=O)O)NC1=O)NC(=O)[C@H](CC1CCCCC1)NC(=O)[C@H](CC(=O)O)NC2=O (some centres unmarked); 4.92

Here is the next item to consider.
Task: Lookup: pIC50 / beta-catenin/TCF4 engagement (Homo sapiens) / CC(=O)N1CCC[C@]12CC=CCCCC1(CCCC=CCCCOC(=O)N3CC[C@@](C(=O)N[C@@H](Cc4ccccc4Cl)C(=O)N[C@@H](Cc4csc5ccccc45)C(=O)N[C@@H](CCC(N)=O)C(N)=O)(C3)NC(=O)[C@H](Cc3ccccc3)NC(=O)[C@H](Cc3ccccc3)NC(=O)[C@H](C)NC(=O)[C@H](C)NC(=O)[C@H](Cc3ccccc3C(=O)O)NC(=O)[C@H](CC(=O)O)NC1=O)NC(=O)[C@H](CC(C)(C)C)NC(=O)[C@H](CC(=O)O)NC2=O (some centres unmarked)
Result: 4.96
